The entries below are paired with their reported pIC50.
# TESTED_TARGET: CDK9/CyclinT1 (Homo sapiens, UniProt P50750)
# Sequence (P50750 whole entry): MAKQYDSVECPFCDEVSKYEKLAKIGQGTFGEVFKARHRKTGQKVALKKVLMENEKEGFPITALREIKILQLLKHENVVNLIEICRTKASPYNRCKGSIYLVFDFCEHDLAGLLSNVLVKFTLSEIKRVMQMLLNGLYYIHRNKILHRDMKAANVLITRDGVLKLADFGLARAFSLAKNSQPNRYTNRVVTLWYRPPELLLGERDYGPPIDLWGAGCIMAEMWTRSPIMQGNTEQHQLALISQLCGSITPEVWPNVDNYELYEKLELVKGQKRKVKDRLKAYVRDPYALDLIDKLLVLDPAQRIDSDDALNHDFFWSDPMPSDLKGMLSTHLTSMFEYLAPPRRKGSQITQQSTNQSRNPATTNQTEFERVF
# Sequence (O60563 whole entry partner): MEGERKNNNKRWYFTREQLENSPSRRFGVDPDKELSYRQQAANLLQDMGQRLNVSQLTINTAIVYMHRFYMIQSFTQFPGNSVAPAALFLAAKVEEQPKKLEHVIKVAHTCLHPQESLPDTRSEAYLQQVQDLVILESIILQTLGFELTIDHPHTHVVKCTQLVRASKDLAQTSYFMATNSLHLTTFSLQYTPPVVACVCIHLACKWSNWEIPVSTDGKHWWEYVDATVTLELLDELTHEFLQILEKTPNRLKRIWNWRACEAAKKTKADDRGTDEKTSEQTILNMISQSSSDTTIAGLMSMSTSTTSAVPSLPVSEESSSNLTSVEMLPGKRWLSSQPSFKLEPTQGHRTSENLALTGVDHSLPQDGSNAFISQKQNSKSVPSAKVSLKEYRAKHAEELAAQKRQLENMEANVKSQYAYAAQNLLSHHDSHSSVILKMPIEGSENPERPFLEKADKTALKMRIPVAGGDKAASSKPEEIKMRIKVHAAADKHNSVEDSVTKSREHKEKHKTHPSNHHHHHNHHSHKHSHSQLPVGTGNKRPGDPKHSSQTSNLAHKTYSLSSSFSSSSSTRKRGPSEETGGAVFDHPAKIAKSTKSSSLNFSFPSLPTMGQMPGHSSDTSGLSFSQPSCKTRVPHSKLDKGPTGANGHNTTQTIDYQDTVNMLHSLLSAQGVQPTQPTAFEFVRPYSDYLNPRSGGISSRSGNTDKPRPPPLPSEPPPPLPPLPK
# PROCEDURE_SUMMARY: CDK9/T1 ADPGlo kinase assay
# STATED_CONDITIONS: CDK9/CyclinT1 6 nM, ATP 10 microM, PDKtide 40 microM, 120 min RT
# Description: The testing compound was evaluated in 12 concentrations in a 1:3 dilution series, starting from 5microM as the highest concentration. […] After incubation time, 5 microL of ADP Glo reagent (ready to use, ADP Glo Kinase assay, Promega GmbH, Germany #V9102) were added, mixed and incubated for 40 min at RT. In the last step, 10 microL of ADP Glo Detection reagent (ready to use, ADP Glo Kinase assay, Promega GmbH, Germany #V9102) were added, mixed and incubated for 30 min at RT. […]
pIC50: −log10 of the molar value.

| MOLECULE | pIC50 |
| --- | --- |
| OCCN[C@H]1CC[C@H](Nc2nc(-c3c(F)cccc3F)nc3c(Cl)cnn23)CC1 [Example #127] | > 7.70 |
| Fc1cccc(Cl)c1-c1nc(Nc2cnn(C3CCN(C4CCOCC4)CC3)c2)n2nccc2n1 [Example #71] | > 6.70 |
| Fc1cccc(F)c1-c1nc(Nc2cnn(C3CCN(C4CC4)CC3)c2)n2nccc2n1 [Example #83] | > 6.70 |
| C#Cc1cnn2c(N[C@H]3CC[C@H](N4CCOCC4)CC3)nc(-c3c(F)cccc3F)nc12 [Example #139] | > 6.70 |
| Fc1cccc(Cl)c1-c1nc(N[C@H]2CC[C@H](N3CCOCC3)CC2)n2nccc2n1 [Example #76] | > 6.70 |
| Fc1cccc(F)c1-c1nc(N[C@H]2CC[C@H](N3CCOCC3)CC2)n2ncc(Cl)c2n1 [Example #89] | > 7.70 |
| Fc1cccc(F)c1-c1nc(Nc2cnn(C3CCNCC3)c2)n2ncc(Cl)c2n1 [Example #103] | > 7.70 |
| CC(C)(C#N)n1cc(Nc2nc(-c3c(F)cccc3Cl)nc3ccnn23)cn1 [Example #36] | > 6.00 |
| Fc1cccc(F)c1-c1nc(Nc2cnn([C@H]3CC[C@H](N4CCOCC4)CC3)c2)n2nccc2n1 [Example #68] | > 6.70 |
| Fc1cccc(Cl)c1-c1nc(Nc2cnn(C3CCN(C4CCOCC4)CC3)c2)n2ncc(Cl)c2n1 [Example #101] | > 7.70 |
| Fc1cccc(F)c1-c1nc(Nc2cnn(C3CCN(CC4CC4)CC3)c2)n2ncc(Cl)c2n1 [Example #100] | > 7.70 |
| Fc1cccc(F)c1-c1nc(N[C@H]2CC[C@H](N3CCOCC3)CC2)n2ncc(Br)c2n1 [Example #95] | > 7.70 |

###

Recorded measurements of IC50, one per entry
# TESTED_TARGET: CDK9/CyclinT1 (Homo sapiens, UniProt P50750)
# PROCEDURE_SUMMARY: CDK9/T1 ADPGlo kinase assay
# STATED_CONDITIONS: CDK9/CyclinT1 6 nM, ATP 10 microM, PDKtide 40 microM, 120 min RT
MEASURED_ATTRIBUTE: IC50

| COMPOUND | MEASURED_VALUE |
| --- | --- |
| N#Cc1cnn2c(Nc3cnn(C4CCN(C5CCOCC5)CC4)c3)nc(-c3c(F)cccc3F)nc12 | < 200 nM |
| Clc1cccc(Cl)c1-c1nc(Nc2cnn(C3CCN(C4CCOCC4)CC3)c2)n2ncc(Cl)c2n1 | < 200 nM |
| FCCCN[C@H]1CC[C@H](Nc2nc(-c3c(F)cccc3F)nc3c(Cl)cnn23)CC1 | < 20 nM |
| Fc1cccc(F)c1-c1nc(Nc2cnn(C3CCN(C4CC4)CC3)c2)n2ncc(Cl)c2n1 | < 200 nM |
| Fc1cccc(F)c1-c1nc(Nc2cnn(C3CCN(C4CCOCC4)CC3)c2)n2ncc(Cl)c2n1 | < 20 nM |
| Fc1cccc(F)c1-c1nc(NCc2cccnc2)n2ncc(Cl)c2n1 | < 20 nM |
| Fc1cccc(F)c1-c1nc(NC2CCC(N3CCOCC3)CC2)n2nccc2n1 (centres unmarked) | < 20 nM |
| CN(C)[C@H]1CC[C@H](Nc2nc(-c3c(F)cccc3F)nc3c(Cl)cnn23)CC1 | < 20 nM |
